Target: T1, SARS-CoV-2 spike glycoprotein S1+S2 extracellular domain (SARS-CoV-2, reference sequence, UniProt P0DTC2)
T1 construct: also called full-length spike glycoprotein ectodomain
Test: ELISA
measured-parameter: OD450 (OD450)

- binder: "FI 1C (antibody, V domains shown, source: HEK293T, transfected; culture supernatant or purified) VH: EVQLVESGGGLVKPGGSLRLSCAASGFTFSDYYMSWIRQAPGKGLEWVSYISSSGSTIYYADSVKGRFTISRDNAKNSLYLQMNSLRAEDTAVYYCARRSNRFLIAFDIWGQGTMVTVSS VL: QSALTQPASVSGSPGQTITISCTGTSSDVGGYNYVSWYQQHPGKAPKLMIYEVSNRPSGVSNRFSGSKSGNTASLTISGLQAEDEADYYCSSYTSSSTLVVFGGGTKLTVP"
  unit-of-measurement: "OD450"
  value-reported: 1.88
- binder: "EW 9B (antibody, V domains shown, source: HEK293T, transfected; culture supernatant or purified) VH: EVQLVQSGAEVKKPGASVKVSCKASGYTFTSYYMHWVRQAPGQGLEWMGIINPSGGSTSYAQKFQGRVTMTRDTSTSTVYMELSSLRSEDTAVYYCAREDGVVPAANLMISLEDYYYYGMDVWGQGTTVTVSS VL: EIVLTQSPATLSLSPGERATLSCRASQSVSSYLAWYQQKPGQAPRLLIYDASNRATGIPARFSGSGSGTDFTLTISSLEPEDFAVYYCQQRSNWPLTFGGGTKVDIK"
  unit-of-measurement: "OD450"
  value-reported: 0.22
- binder: "FN 2C (antibody, V domains shown, source: HEK293T, transfected; culture supernatant or purified) VH: EVQLLESGGGVVQPGRSLRLSCAASGFNFNNYGMHWVRQAPGKGLEWVATISYEGSKKFYVDSVKGRFTISKDNSKNTLYLQMNSLRVDDTAFYYCAKRREIFWLGEPPLSDAFDFWGQGTMVTVSS VL: QSVLTQPPSVSGAPGQRVTISCTGSGSNIGAGYDVHWYQFLPGTAPQLLIYGNNNRPSGVPDRFSGSKSGTSASLAITGLQAEDEADYYCQSYDSSLSGSVFGGGTKLTVL"
  unit-of-measurement: "OD450"
  value-reported: 1.77
